# systemName: SIX1-Q177R homeodomain (human, UniProt Q15475 108-198, Q177R)
# Sequence: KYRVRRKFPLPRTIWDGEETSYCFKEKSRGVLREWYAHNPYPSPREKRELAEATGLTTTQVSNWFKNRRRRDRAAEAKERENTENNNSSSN
# testDetails: universal protein binding microarray; Universal all-10-mer PBM (8x60K, AMADID 030236), 300 nM GST-tagged protein, Alexa Fluor 488 anti-GST; buffer, salt, pH and temperature not stated (as in Berger); high values mean tight binding
# experimentalConditions: protein: ivt; tags: N-terminal GST; dsDNA, one strand shown
Whole data set: some 33,000 sequences, median “e-score” near -0.05, cut for the highest 2% near 0.38. Only a selection was taken, and the highest values are over-represented in it overall.
Lab note: anything with binding signal below 0.2 E-score is marked Y; values at 0.2 E-score or higher are marked N.

[[record]]
constructsequence = "CACCTCCA"
systemname = "SIX1-Q177R homeodomain (human, UniProt Q15475 108-198, Q177R)"
class = "N"


Would you kindly verify if binding signal of `CCCCGAAA` is strictly less than 0.2 E-score?
Y

Would you kindly verify if binding signal of `CAATACCC` is strictly less than 0.2 E-score?
N

Would you kindly verify if binding signal of `ACCTAGAG` is strictly less than 0.2 E-score?
Y

Would you kindly verify if binding signal of `AGATACCC` is strictly less than 0.2 E-score?
N

Would you kindly verify if binding signal of `ACCACCCC` is strictly less than 0.2 E-score?
N

Would you kindly verify if binding signal of `AGCACCCT` is strictly less than 0.2 E-score?
Y
